Hello, the source for this data is paper PMC11480844, in case you need it.

B1: H2-Kb / Ed21 (parent complex)
chain 1: AQSVTQPDARVTVSEGASLQLRCKYSYFGTPYLFWYVQYPRQGLQLLLKYYPGDPVVQGVNGFEAEFSKSNSSFHLRKASVHWSDWAVYFCAVSMSGGYKVVFGSGTRLLVSP
chain 2: DSGVVQSPRHIIKEKGGRSVLTCIPISGHSNVVWYQQTLGKELKFLIQHYEKVERDKGFLPSRFSVQQFDDYHSEMNMSALELEDSAMYFCASSPRQTDYTFGSGTRLLVI
chain 3: not shown
chain 4: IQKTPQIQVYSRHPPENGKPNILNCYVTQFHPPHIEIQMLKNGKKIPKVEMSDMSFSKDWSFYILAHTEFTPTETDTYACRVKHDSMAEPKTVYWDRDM
chain 5: SIINFEKL

Variants of: B1
Experiment: % of reporter cells activated (NFAT-GFP), raw; also: test concentration or dose not given here
Range-based classes on measured ratio to parent: low range = under 0.8, mid range = from 0.8 up to 0.9, high range = 0.9 and over

[Q] In plain terms, what class is chain 5 S1M ?
[A] high range
